// data source = patent US11008314B2

molecular target: JAK3 (Homo sapiens (Human), UniProt P52333); assay: IC50 against JAK3; type: biochemical
Sequence (P52333 whole entry, species assumed): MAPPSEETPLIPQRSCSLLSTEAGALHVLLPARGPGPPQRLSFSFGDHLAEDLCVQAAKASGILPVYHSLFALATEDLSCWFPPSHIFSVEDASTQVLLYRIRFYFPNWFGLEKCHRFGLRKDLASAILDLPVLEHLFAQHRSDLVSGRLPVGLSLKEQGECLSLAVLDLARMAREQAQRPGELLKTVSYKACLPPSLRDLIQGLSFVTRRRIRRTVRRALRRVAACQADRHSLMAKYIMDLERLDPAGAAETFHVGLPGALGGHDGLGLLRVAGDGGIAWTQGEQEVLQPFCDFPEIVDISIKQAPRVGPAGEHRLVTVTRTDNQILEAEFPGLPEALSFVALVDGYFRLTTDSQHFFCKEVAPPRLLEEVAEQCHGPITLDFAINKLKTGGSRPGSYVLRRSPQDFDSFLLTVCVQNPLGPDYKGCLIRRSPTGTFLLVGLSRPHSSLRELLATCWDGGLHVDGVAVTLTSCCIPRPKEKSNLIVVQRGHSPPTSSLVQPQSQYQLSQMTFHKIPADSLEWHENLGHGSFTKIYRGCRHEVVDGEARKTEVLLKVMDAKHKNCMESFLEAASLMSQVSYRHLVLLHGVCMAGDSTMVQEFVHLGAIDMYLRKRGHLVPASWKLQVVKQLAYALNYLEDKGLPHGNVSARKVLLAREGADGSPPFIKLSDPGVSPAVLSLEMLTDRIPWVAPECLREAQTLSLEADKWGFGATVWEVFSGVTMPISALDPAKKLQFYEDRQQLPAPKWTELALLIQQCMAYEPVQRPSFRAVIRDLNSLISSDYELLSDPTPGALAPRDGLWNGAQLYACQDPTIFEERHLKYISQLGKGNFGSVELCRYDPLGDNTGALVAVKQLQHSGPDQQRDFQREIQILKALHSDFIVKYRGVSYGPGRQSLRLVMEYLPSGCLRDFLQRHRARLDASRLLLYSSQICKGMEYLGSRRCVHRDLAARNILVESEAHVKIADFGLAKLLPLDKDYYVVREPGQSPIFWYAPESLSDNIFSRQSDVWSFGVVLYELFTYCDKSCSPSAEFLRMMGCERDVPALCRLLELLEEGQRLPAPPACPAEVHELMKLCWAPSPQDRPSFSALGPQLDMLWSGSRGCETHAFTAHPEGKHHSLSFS
IC50: recorded values

{"columns": ["compound", "IC50"],
 "data": [
  ["C=CC(=O)N1CCCN(C(=O)c2cc(Cc3cnc(NC(=O)C4CC4)s3)c(C)cc2C)C[C@H]1C [Compound 127]", "≥ 10000 nM"],
  ["C=CC(=O)N1CCN(C(=O)c2cccc(Cc3cnc(NC(=O)C4CC4)s3)c2)CC1 [Compound 4]", "100 to 1000 nM"],
  ["C=CC(=O)N1CC[C@@H](N(C)C(=O)c2cc(Sc3cnc(NC(=O)C4CC4)s3)c(C)cc2OC)C1 [Compound 27]", "< 10 nM"],
  ["C=CC(=O)N1CCN(C(=O)c2cc(Sc3cnc(NC(=O)C4CC4)s3)c(C)cc2C(F)(F)F)C[C@H]1C [Compound 69]", "1000 to 10000 nM"],
  ["C=CC(=O)N1CCN(C(=O)c2cc(Sc3cnc(NC(=O)C4CC4)s3)c(Cl)cc2C)CC1 [Compound 80]", "10 to 100 nM"]
]}

Continue with the next compound.
Query (compound): C=CC(=O)N1CCC2(C1)CN(C(=O)c1cc(Sc3cnc(Nc4ccccn4)s3)c(C)cc1OC)C2 [Compound 152] ; field requested: IC50
100 to 1000 nM

###

target: JAK3 (Homo sapiens (Human)); experiment: IC50 against JAK3; assay type: biochemical
observable: IC50

See these solved cases before continuing.
{"columns": ["molecularString", "measurementTarget", "recordedValue"],
 "data": [
  ["C=CC(=O)N1CCN(C(=O)c2cc(Sc3cnc(NC(=O)c4ccsc4)s3)c(C)cc2OC)C[C@H]1CC", "JAK3 (Homo sapiens (Human))", "100 to 1000 nM"],
  ["C=CC(=O)N1CCN(C(=O)c2cc(Sc3cnc(NC(=O)C4CC4)s3)c(C)cc2OC)[C@@H](C)C1", "JAK3 (Homo sapiens (Human))", "100 to 1000 nM"],
  ["C=CC(=O)N1CCN(C(=O)c2cc(Sc3cnc(NC(=O)CC)s3)c(C)cc2OC)[C@@H](C)C1", "JAK3 (Homo sapiens (Human))", "1000 to 10000 nM"],
  ["C=CC(=O)N1CCN(C(=O)c2cc(Sc3cnc(NC(=O)C4CC4)s3)c(C)cc2C)CC1", "JAK3 (Homo sapiens (Human))", "100 to 1000 nM"]
]}

Query (compound): C=CC(=O)N1[C@@H]2CC[C@H]1CN(C(=O)c1cc(Sc3cnc(Nc4ccccn4)s3)c(C)cc1OC)C2 ; field requested: IC50
10 to 100 nM

One more compound: C=CC(=O)N1CCCN(C(=O)c2cc(Sc3cnc(NC(=O)CC)s3)c(C)cc2OC)C[C@H]1C
≥ 10000 nM

One more compound: C=CC(=O)N1CCCN(C(=O)c2cc(Sc3cnc(NC(=O)c4cnsc4)s3)c(C)cc2C)C[C@H]1CC
1000 to 10000 nM

###

target: TXK (Homo sapiens (Human)); assay: IC50 against TXK; format: biochemical
Sequence (P42681 whole entry, species assumed): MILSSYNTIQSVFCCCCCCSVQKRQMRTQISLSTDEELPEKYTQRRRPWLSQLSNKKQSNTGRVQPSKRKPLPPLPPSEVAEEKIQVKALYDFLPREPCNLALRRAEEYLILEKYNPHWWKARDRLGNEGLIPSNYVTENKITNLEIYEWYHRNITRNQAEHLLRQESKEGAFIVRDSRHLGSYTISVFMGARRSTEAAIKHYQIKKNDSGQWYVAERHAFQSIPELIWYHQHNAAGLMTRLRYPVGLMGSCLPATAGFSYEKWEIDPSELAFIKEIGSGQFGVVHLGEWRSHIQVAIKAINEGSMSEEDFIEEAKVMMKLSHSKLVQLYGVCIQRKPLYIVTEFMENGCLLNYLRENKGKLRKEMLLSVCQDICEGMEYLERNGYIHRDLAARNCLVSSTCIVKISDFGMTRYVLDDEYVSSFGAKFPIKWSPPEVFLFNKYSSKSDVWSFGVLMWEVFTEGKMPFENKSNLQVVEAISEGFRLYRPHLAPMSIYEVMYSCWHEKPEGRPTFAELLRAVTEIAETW
IC50: recorded values

{"columns": ["molecularString", "recordedValue"],
 "data": [
  ["C=CC(=O)N1CC2(CCN(C(=O)c3cc(Sc4cnc(NC(=O)C5CC5)s4)c(C)cc3OC)C2)C1", "< 10 nM"],
  ["C=CC(=O)N1[C@@H]2CC[C@H]1CN(C(=O)c1cc(Sc3cnc(Nc4ccccn4)s3)c(C)cc1OC)C2", "< 10 nM"],
  ["C=CC(=O)N1CCCN(C(=O)c2cc(Sc3cnc(NC(=O)C4CC4)s3)c(Cl)cc2C)C[C@H]1C", "1000 to 10000 nM"],
  ["C=CC(=O)N1CC[C@@H](N(C)C(=O)c2cc(Sc3cnc(NC(=O)C4CC4)s3)c(C)cc2OC)C1", "< 10 nM"],
  ["C=CC(=O)N1CCN(C(=O)c2cc(Sc3cnc(NC(=O)C4CC4)s3)c(C)cc2CC)C[C@H]1CC", "10 to 100 nM"]
]}

IC50 of C=CC(=O)N1CCCN(C(=O)c2cc(C)c(C)c(Sc3cnc(NC(=O)C4CC4)s3)c2)C[C@H]1C on TXK (Homo sapiens (Human))?
1000 to 10000 nM

One more molecule: C=CC(=O)N1CCC2(C1)CN(C(=O)c1cc(Sc3cnc(Nc4ccccn4)s3)c(C)cc1OC)C2
< 10 nM

One more molecule: C=CC(=O)N1CCN(C(=O)c2cc(Sc3cnc(NC(=O)c4ccsc4)s3)c(C)cc2C)CC1
10 to 100 nM

###

IC50: recorded values
molecular target: JAK3 (Homo sapiens (Human), UniProt P52333); test: IC50 against JAK3; type: biochemical

Query (compound): C=CC(=O)N1CCCN(C(=O)c2cc(Sc3cnc(NC(=O)C4CC4)s3)c(C)cc2CC)C[C@H]1C [Compound 105] ; field requested: IC50
1000 to 10000 nM

###

target: ITK (Homo sapiens (Human), UniProt Q08881); assay: IC50 against ITK; format: biochemical
Sequence (Q08881 whole entry): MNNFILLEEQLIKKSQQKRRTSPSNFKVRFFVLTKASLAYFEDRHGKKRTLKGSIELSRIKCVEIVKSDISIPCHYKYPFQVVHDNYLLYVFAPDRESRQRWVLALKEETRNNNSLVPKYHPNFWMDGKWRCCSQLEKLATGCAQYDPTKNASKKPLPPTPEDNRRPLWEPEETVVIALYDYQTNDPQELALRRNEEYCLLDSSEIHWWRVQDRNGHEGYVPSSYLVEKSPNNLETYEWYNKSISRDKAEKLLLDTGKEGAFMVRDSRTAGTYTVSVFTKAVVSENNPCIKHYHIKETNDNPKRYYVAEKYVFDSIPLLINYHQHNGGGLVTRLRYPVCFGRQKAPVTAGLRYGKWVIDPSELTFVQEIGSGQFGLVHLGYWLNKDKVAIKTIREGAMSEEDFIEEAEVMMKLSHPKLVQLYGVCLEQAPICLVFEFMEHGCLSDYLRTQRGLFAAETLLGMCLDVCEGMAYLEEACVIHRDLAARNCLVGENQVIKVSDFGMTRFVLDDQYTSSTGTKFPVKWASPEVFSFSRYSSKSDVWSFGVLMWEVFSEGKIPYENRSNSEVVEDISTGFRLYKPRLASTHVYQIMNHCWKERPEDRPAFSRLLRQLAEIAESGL
IC50: recorded values

{"columns": ["molecule", "IC50"],
 "data": [
  ["C=CC(=O)N1CCCN(C(=O)c2cc(Sc3cnc(Nc4ncccc4C)s3)c(C)cc2OC)C[C@H]1C [Compound 136]", "< 10 nM"],
  ["C=CC(=O)N1CCN(C(=O)c2cc(Sc3cnc(NC(=O)c4cccc(CN(C)C)c4)s3)c(C)cc2OC)CC(F)C1 (stereo not drawn) [Compound 66]", "< 10 nM"],
  ["C=CC(=O)N1CCCN(C(=O)c2cc(Sc3cnc(NC(=O)c4cccc(CN(C)C)c4)s3)c(C)cc2OC)CC1 [Compound 33]", "< 10 nM"],
  ["C=CC(=O)N1CCCN(C(=O)c2cc(Sc3cnc(NC(=O)C4CC4)s3)c(C)cc2CC)C[C@H]1C [Compound 105]", "< 10 nM"],
  ["C=CC(=O)N1CCN(C(=O)c2cc(Sc3cnc(Nc4ccc(CN(C)C)cn4)s3)c(C)cc2OC)CC1 [Compound 134]", "< 10 nM"]
]}

Query (molecule): C=CC(=O)N1CCCN(C(=O)c2cc(CSc3cnc(NC(=O)C4CC4)s3)cc(C)c2C)CC1 [Compound 58] ; field requested: IC50
1000 to 10000 nM

One more molecule: C=CC(=O)N1C[C@@H]2C[C@H]1CN2C(=O)c1cc(Sc2cnc(NC(=O)C3CC3)s2)c(C)cc1OC [Compound 23]
< 10 nM

One more molecule: C=CC(=O)N1CCCN(C(=O)c2cc(Sc3cnc(NC(=O)C4CCC4)s3)c(C)cc2OC)C[C@H]1C [Compound 86]
10 to 100 nM

One more molecule: C=CC(=O)N1CCCN(C(=O)c2cc(Sc3cnc(NC(=O)c4cccc(CN[C@H](C)C(C)(C)C)c4)s3)c(C)cc2OC)CC1 [Compound 56]
< 10 nM

One more molecule: C=CC(=O)N1CCCN(C(=O)c2cc(Sc3cnc(NC(=O)C4CC4)s3)c(C)cc2F)C[C@H]1C [Compound 60]
10 to 100 nM

One more molecule: C=CC(=O)N1CCN(C(=O)c2cc(Sc3cnc(NC(=O)C4CC4)s3)c(C)cc2C(F)(F)F)CC1 [Compound 68]
10 to 100 nM

One more molecule: C=CC(=O)N1CCN(C(=O)c2cc(Sc3cnc(NC(=O)C4CCCC4)s3)c(C)cc2OC)CC1 [Compound 31]
10 to 100 nM

###

target: JAK3 (Homo sapiens (Human)); test: IC50 against JAK3; format: biochemical
observable: IC50

See these solved cases before continuing.
{"columns": ["molecularString", "recordedValue"],
 "data": [
  ["C=CC(=O)N1CCN(C(=O)c2cc(Sc3cnc(NC(=O)c4ccncc4)s3)c(C)cc2OC)CC1", "1000 to 10000 nM"],
  ["C=CC(=O)N1CCCN(C(=O)c2cc(Sc3cnc(NC(=O)CN(C)C)s3)c(C)cc2OC)CC1", "≥ 10000 nM"],
  ["C=CC(=O)N1CCCN(C(=O)c2cc(Cc3cnc(NC(=O)C4CC4)s3)c(C)cc2OC)C[C@H]1C", "≥ 10000 nM"],
  ["C=CC(=O)N1CCN(C(=O)c2cc(Sc3cnc(Nc4ccccn4)s3)c(C)cc2OC)[C@@H](C)C1", "10 to 100 nM"],
  ["C=CC(=O)N1CCCN(C(=O)c2cc(Sc3cnc(NC(=O)C4CC4)s3)c(Cl)cc2C)C[C@H]1C", "1000 to 10000 nM"]
]}

Continue with the next compound.
Query (compound): C=CC(=O)N1CCCN(C(=O)c2cc(Sc3cnc(NC(=O)C4CC4)s3)c(C)cc2OC)C[C@H]1CC ; field requested: IC50
1000 to 10000 nM

###

IC50: recorded values
biological target: BTK (Homo sapiens (Human), UniProt Q06187); test: IC50 against BTK; type: biochemical
Sequence (Q06187 whole entry, species assumed): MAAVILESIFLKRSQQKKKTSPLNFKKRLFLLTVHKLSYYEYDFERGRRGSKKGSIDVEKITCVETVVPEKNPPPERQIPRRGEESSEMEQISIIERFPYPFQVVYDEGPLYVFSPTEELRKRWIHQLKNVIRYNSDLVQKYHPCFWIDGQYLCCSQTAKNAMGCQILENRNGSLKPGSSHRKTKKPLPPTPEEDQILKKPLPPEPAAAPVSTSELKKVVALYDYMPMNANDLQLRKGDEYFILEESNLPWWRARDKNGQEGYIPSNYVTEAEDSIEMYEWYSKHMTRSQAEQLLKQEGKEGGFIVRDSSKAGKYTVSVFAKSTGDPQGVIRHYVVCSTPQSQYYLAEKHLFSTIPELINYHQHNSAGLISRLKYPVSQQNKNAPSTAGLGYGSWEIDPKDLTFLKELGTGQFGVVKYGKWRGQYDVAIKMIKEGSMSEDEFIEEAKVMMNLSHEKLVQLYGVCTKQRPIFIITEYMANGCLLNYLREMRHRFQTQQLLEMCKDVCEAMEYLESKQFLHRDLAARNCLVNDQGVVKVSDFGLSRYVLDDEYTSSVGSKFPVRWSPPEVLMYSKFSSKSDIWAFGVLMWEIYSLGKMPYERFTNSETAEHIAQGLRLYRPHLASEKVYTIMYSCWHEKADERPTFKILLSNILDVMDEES

See these solved cases before continuing.
{"columns": ["molecule", "IC50"],
 "data": [
  ["C=CC(=O)N1CCN(C(=O)c2cc(Sc3cnc(NC(=O)C4CC4)s3)c(C)cc2C)CC1 [Compound 73]", "100 to 1000 nM"],
  ["C=CC(=O)N1CCN(C(=O)c2cc(Sc3cnc(NC(=O)C4CC4)s3)c(F)cc2C)C[C@H]1C [Compound 82]", "≥ 10000 nM"],
  ["C=CC(=O)N1CCN(C(=O)c2cc(C(C)c3cnc(NC(=O)C4CC4)s3)c(C)cc2OC)CC1 (stereo not shown) [Compound 140]", "10 to 100 nM"]
]}

Continue with the next molecule.
Query (molecule): C=CC(=O)N1[C@@H]2CC[C@H]1CN(C(=O)c1cc(Sc3cnc(NC(=O)c4ccsc4)s3)c(C)cc1OC)C2 [Compound 155] ; field requested: IC50
< 10 nM
